# experimentalProtocol: Tissue Distribution in Rats
# Format: in vivo, rat
# assaySetup: male, spleen; rat, 5 mg/kg oral, 48 hr post dose; read-out: Tissue to Plasma Ratio, Spleen
resultType: Kp at 48 h
A bare number is all that is needed in reply.

Req: What measured Kp at 48 h goes with Cc1cc(-c2cncc([C@@H](O)C(F)(F)F)c2)nc2c1C(=O)N(c1cnn(CC(F)F)c1)C2(C)C [Compound 1] ?
Resp: 0.88

###

# experimentalProtocol: Tissue Distribution in Rats
# Format: in vivo, rat
# assaySetup: rat, brain and CSF, relative to plasma; male rats, 5 mg/kg oral; read-out: brain and CSF exposure, % of the plasma exposure
resultType: Kp

Req: Dear colleague, I am looking for the recorded Kp of the following compound: Cc1cc(-c2cncc([C@@H](O)C(F)(F)F)c2)nc2c1C(=O)N(c1cnn(CC(F)F)c1)C2(C)C
Resp: < 0.001

###

# experimentalProtocol: Intravenous bolus pharmacokinetics
# Type: in vivo
# assaySetup: in vivo; Monkey, single IV bolus, 0.5 mg/kg nominal
resultType: AUC(0-inf)
Hey, just the number and the unit after it is fine.

Req: // lookup AUC(0-inf) for Cc1cc(-c2cncc([C@@H](O)C(F)(F)F)c2)nc2c1C(=O)N(c1cnn(CC(F)F)c1)C2(C)C
Resp: 740 ng·h/mL

###

# experimentalProtocol: Oral pharmacokinetics / bioavailability
# Type: in vivo, Rat
# assaySetup: rat, in vivo; Oral gavage, 3 mg/kg nominal dose, vehicle 0.2%MC/1%SLS; read-out: Rat PO Cmax
So I've got a bunch of molecules here, and I need their log10 of Cmax values.
log10 Cmax, ng/mL

Req: Using the record for COc1cncc(-c2cc(C)c3c(n2)C(C)(C)N(c2cnn(CC(F)F)c2)C3=O)c1 [Compound A, reference compound] , report its log10 of Cmax.
Resp: 1.78

Req: Quick one: Cc1cc(-c2cncc(OCC(F)(F)F)c2)nc2c1C(=O)N(c1cnn(CC(F)F)c1)C2(C)C [D, reference compound]
Resp: 2.70

Req: For Cc1cc(-c2cncc([C@@H](O)C(F)(F)F)c2)nc2c1C(=O)N(c1cnn(CC(F)F)c1)C2(C)C then?
Resp: 3.00

Req: Same thing, different molecule: CCOc1cncc(-c2cc(C)c3c(n2)C(C)(C)N(c2cnn(CC(F)F)c2)C3=O)c1 [B, reference compound]
Resp: 2.08

Req: How about Cc1cc(-c2cncc(OCC(F)F)c2)nc2c1C(=O)N(c1cnn(CC(F)F)c1)C2(C)C [C, reference compound] ?
Resp: 2.30

###

# experimentalProtocol: Intravenous bolus pharmacokinetics
# Type: in vivo, Rat
# assaySetup: plasma; Rat, single IV bolus, 0.5 mg/kg nominal
resultType: half-life (h)
API: value field is a number in h; no unit string.

Req: Quick one: half-life of Cc1cc(-c2cncc([C@@H](O)C(F)(F)F)c2)nc2c1C(=O)N(c1cnn(CC(F)F)c1)C2(C)C ?
Resp: 8.2

###

# experimentalProtocol: Tissue Distribution in Rats
# Type: in vivo, rat
# assaySetup: male, heart; rat, 5 mg/kg oral, 2 hr post dose; read-out: Tissue to Plasma Ratio, Heart
resultType: Kp at 2 hr
I only need the number, thanks.

Req: Query: Kp at 2 hr; subject: Cc1cc(-c2cncc([C@@H](O)C(F)(F)F)c2)nc2c1C(=O)N(c1cnn(CC(F)F)c1)C2(C)C
Resp: 1.67

###

# experimentalProtocol: Intravenous bolus pharmacokinetics
# Format: in vivo
# assaySetup: in vivo; Monkey, single IV bolus, 0.5 mg/kg nominal
resultType: clearance (mL/min/kg)
Entry rule: numbers only, all in mL/min/kg.

Req: So what does the record say about clearance for Cc1cc(-c2cncc([C@@H](O)C(F)(F)F)c2)nc2c1C(=O)N(c1cnn(CC(F)F)c1)C2(C)C [Compound 1] ?
Resp: 11.5

###

# experimentalProtocol: Intravenous bolus pharmacokinetics
# Assay type: in vivo
# assaySetup: in vivo; Dog, single IV bolus, 0.5 mg/kg nominal
resultType: AUC(0-inf) (ng·h/mL)
Please respond with the number in ng·h/mL and leave the unit unwritten.

Req: Suppose we examine the compound Cc1cc(-c2cncc([C@@H](O)C(F)(F)F)c2)nc2c1C(=O)N(c1cnn(CC(F)F)c1)C2(C)C [Compound 1] ; what AUC(0-inf) value has been reported?
Resp: 2000

###

# experimentalProtocol: Oral pharmacokinetics / bioavailability
# Type: in vivo
# assaySetup: in vivo; Mouse, single oral, 1 mg/kg nominal, 0.2% MC/1% SLS
resultType: AUC (ng·h/mL)
Respond numerically; units are ng·h/mL and should not be typed.

Req: State the recorded AUC for this entry: Cc1cc(-c2cncc([C@@H](O)C(F)(F)F)c2)nc2c1C(=O)N(c1cnn(CC(F)F)c1)C2(C)C [Compound 1]
Resp: 2720

###

# experimentalProtocol: Permeability in MDCK wild-type cell line
# Assay type: in vitro ADME, canine
# assaySetup: dog, MDCK-WT, B > A
resultType: Papp B→A at 1 h, 1 μM (×10⁻⁶ cm/s)
Answer format: numeric, ×10⁻⁶ cm/s implied, no suffix.

Req: # Papp B→A at 1 h, 1 μM lookup, item Cc1cc(-c2cncc([C@@H](O)C(F)(F)F)c2)nc2c1C(=O)N(c1cnn(CC(F)F)c1)C2(C)C [Compound 1]
Resp: 23.8

###

# experimentalProtocol: Tissue Distribution in Rats
# Assay type: in vivo, rat
# assaySetup: male, brain; rat, 5 mg/kg oral, 48 hr post dose; read-out: Tissue to Plasma Ratio, Brain
resultType: Kp at 48 h
I'd appreciate a reply containing only the number, no unit.

Req: # query: Kp at 48 h of entry Cc1cc(-c2cncc([C@@H](O)C(F)(F)F)c2)nc2c1C(=O)N(c1cnn(CC(F)F)c1)C2(C)C
Resp: 0.07

###

# experimentalProtocol: Oral pharmacokinetics / bioavailability
# Assay type: in vivo
# assaySetup: in vivo; Dog, single oral, 3 mg/kg nominal, spray-dried dispersion
resultType: Tmax (min)
Write the value in min as a bare number.

Req: Fill in the blank: the reported Tmax of Cc1cc(-c2cncc([C@@H](O)C(F)(F)F)c2)nc2c1C(=O)N(c1cnn(CC(F)F)c1)C2(C)C [Compound 1] is ____.
Resp: 49.8

###

# experimentalProtocol: Tissue Distribution in Rats
# Format: in vivo, rat
# assaySetup: male, brain (relative to plasma); rat, 5 mg/kg oral, 24 hr post dose; read-out: Tissue to Plasma Ratio, Brain
# Experimental: Compound 1 distributed well into most tissues after an oral dose of 5 mg/kg administered to male rats. […] The tissue to plasma ratio followed the trend of liver>kidney>heart>lung>spleen>brain>CSF. The elimination kinetics of Compound 1 in each examined organ followed plasma kinetics. There was no evidence for tissue accumulation of Compound 1 after a single dose administration.
resultType: Kp at 24 h

Req: Name the reported Kp at 24 h value associated with the molecule Cc1cc(-c2cncc([C@@H](O)C(F)(F)F)c2)nc2c1C(=O)N(c1cnn(CC(F)F)c1)C2(C)C [Compound 1]
Resp: 0.06

###

# experimentalProtocol: Tissue drug concentrations in CD40-induced IBD model
# Format: in vivo, mouse
# assaySetup: Rag1 knock-out (Rag 1−/−), mouse, plasma, intraperitoneal; 5 mg/kg b.i.d. IP, 7 days, 2 h after last dose
resultType: concentration at 2 h (ng/mL)
The reply should contain only the number, in ng/mL.

Req: Consider the compound Cc1cc(-c2cncc([C@@H](O)C(F)(F)F)c2)nc2c1C(=O)N(c1cnn(CC(F)F)c1)C2(C)C [Compound 1] and give its measured concentration at 2 h.
Resp: 4020

###

# subjectOfTest: UniProt:O00329
# Sequence (O00329 whole entry, species assumed): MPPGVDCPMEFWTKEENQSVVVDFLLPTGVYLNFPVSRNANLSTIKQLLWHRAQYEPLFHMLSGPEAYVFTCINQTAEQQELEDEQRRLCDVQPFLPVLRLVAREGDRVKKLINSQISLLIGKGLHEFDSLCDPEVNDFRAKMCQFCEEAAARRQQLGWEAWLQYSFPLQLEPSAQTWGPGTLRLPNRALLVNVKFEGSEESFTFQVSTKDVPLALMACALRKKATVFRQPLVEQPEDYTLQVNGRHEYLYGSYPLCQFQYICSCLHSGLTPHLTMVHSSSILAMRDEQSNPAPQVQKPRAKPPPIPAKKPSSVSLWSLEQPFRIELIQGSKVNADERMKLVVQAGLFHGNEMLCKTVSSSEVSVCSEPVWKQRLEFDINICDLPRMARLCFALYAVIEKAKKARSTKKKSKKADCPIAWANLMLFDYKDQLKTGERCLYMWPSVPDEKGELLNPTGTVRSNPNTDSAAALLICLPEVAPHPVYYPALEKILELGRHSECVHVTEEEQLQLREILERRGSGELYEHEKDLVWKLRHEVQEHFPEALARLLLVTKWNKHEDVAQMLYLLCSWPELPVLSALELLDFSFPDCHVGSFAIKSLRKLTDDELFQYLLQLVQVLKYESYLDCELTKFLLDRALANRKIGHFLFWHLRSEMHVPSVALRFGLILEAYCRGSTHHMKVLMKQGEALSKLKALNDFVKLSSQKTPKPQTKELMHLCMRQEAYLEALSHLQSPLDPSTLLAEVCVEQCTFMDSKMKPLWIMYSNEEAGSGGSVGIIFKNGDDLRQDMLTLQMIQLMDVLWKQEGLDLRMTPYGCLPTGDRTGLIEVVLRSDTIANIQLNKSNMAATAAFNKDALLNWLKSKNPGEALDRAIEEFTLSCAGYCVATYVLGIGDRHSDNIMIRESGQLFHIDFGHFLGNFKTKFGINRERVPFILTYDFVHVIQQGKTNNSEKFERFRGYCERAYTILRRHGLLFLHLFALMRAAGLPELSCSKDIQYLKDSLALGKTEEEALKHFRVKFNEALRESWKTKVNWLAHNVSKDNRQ
# Sequence (P27986 whole entry partner, species assumed): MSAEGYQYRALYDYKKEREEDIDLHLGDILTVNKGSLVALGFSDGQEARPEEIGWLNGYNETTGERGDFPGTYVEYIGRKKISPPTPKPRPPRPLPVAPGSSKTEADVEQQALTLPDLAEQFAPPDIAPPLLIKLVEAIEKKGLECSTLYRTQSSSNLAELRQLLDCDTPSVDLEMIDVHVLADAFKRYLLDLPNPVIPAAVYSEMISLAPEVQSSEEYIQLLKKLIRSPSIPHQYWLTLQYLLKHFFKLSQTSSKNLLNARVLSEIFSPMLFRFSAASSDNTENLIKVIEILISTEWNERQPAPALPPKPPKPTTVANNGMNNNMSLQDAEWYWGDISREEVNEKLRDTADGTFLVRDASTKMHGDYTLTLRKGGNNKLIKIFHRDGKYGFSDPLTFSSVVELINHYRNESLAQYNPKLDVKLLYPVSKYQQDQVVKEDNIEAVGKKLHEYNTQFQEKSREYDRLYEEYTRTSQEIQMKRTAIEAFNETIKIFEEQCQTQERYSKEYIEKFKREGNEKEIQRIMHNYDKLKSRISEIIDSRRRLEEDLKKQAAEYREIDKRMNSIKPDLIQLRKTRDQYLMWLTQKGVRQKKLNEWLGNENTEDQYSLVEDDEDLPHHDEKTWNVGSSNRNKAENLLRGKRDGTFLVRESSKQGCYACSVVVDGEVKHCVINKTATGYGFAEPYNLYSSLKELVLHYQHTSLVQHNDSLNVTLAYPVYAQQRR
resultType: Ki
Answer format: number, then unit.

Req: Which Ki value is on record for Cc1cc(-c2cncc([C@@H](O)C(F)(F)F)c2)nc2c1C(=O)N(c1cnn(CC(F)F)c1)C2(C)C ?
Resp: 160 nM

###

# experimentalProtocol: Oral pharmacokinetics / bioavailability
# Type: in vivo
# assaySetup: in vivo; Mouse, single oral, 1 mg/kg nominal, 0.2% MC/1% SLS
resultType: Cmax (ng/mL)
# output: bare number, implied unit ng/mL

Req: What Cmax value was documented for this compound, Cc1cc(-c2cncc([C@@H](O)C(F)(F)F)c2)nc2c1C(=O)N(c1cnn(CC(F)F)c1)C2(C)C ?
Resp: 290

###

# experimentalProtocol: Intravenous bolus pharmacokinetics
# Type: in vivo
# assaySetup: in vivo; Mouse, single IV bolus, 0.45 mg/kg nominal
resultType: clearance (mL/min/kg)
Lab book: enter the figure in mL/min/kg, no units written.

Req: I would be grateful if you could share the reported clearance for Cc1cc(-c2cncc([C@@H](O)C(F)(F)F)c2)nc2c1C(=O)N(c1cnn(CC(F)F)c1)C2(C)C .
Resp: 4.9

###

# experimentalProtocol: Tissue Distribution in Rats
# Type: in vivo, rat
# assaySetup: male, CSF (relative to plasma); rat, 5 mg/kg oral, 24 hr post dose; read-out: Tissue to Plasma Ratio, CSF
resultType: Kp at 24 h
The reply should be a number, written without any unit.

Req: Which Kp at 24 h value is on record for Cc1cc(-c2cncc([C@@H](O)C(F)(F)F)c2)nc2c1C(=O)N(c1cnn(CC(F)F)c1)C2(C)C [Compound 1] ?
Resp: 0.01
